assay_comment: Ability to reverse action of CpG-ODN on WEHI 231 murine B-cell lymphoma cells
Format: functional, cell-based, Mus musculus
outcome_measure: Log 1/EC50

# molecule, Log 1/EC50
data = [
    ("CN1CCN(Cc2cccc(-c3cc(NCCC4CCCN4C)c4ccccc4n3)c2)CC1 (stereo not drawn)", 8.11),
    ("CN(C)CCNc1cc(-c2ccc(N3CCCCC3)cc2)nc2ccccc12", 8.27),
    ("CN(C)CCCNc1cc(-c2ccc(CN3CCN(C)CC3)cc2)nc2ccccc12", 8.04),
    ("Cc1ccc(-c2cc(Nc3ccc(O)c(CN4CCN(C)CC4)c3)c3ccccc3n2)cc1", 7.88),
    ("CCN1CCCC1CNc1cc(-c2ccc(F)cc2)nc2ccccc12 (stereo not drawn)", 7.77),
    ("Cc1cccc(-c2cc(NCCCN3CCOCC3)c3ccccc3n2)c1", 7.3),
    ("Fc1ccc(-c2cc(NCCCN3CCOCC3)c3ccccc3n2)cc1", 7.17),
    ("CN(C)CCCCNc1cc(-c2ccc(F)cc2)nc2ccccc12", 7.76),
]
